# assayed.target: POU2 (OCT2 POU domain) (human, UniProt P09086 175-386)
# Sequence: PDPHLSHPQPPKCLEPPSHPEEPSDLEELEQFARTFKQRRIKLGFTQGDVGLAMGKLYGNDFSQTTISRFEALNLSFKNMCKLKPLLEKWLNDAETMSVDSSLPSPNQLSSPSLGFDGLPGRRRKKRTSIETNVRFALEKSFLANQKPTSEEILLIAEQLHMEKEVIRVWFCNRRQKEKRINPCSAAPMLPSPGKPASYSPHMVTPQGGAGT
# measurement.protocol: EMSA-SELEX-seq; no BOB1; 20 mM Tris-HCl pH 7.6, 140 mM NaCl, 10% glycerol, 0.5 mM EDTA, 0.05% Triton X-100, 0.1 mg/mL BSA, 0.1 mg/mL poly(dI-dC), 5 mM DTT, room temperature, 20 min; high values mean tight binding
# applied.conditions: protein: recombinant; dsDNA, one strand shown
readout.label: binding signal

[
  {
    "seq": "ATCGCAAC",
    "readout.label": "binding signal",
    "observed.measurement": "0.0173 % of ANNNNAAN 8-mers"
  },
  {
    "seq": "AGCCCAAA",
    "readout.label": "binding signal",
    "observed.measurement": "0.0207 % of ANNNNAAN 8-mers"
  },
  {
    "seq": "AAATCAAT",
    "readout.label": "binding signal",
    "observed.measurement": "0.143 % of ANNNNAAN 8-mers"
  },
  {
    "seq": "ATTCAAAA",
    "readout.label": "binding signal",
    "observed.measurement": "0.277 % of ANNNNAAN 8-mers"
  }
]

Given "ACGCAAAT" , state its recorded binding signal. 0.409 % of ANNNNAAN 8-mers

Queued: "ACAGCAAA" 0.0213 % of ANNNNAAN 8-mers

Queued: "AATCAAAC" 0.057 % of ANNNNAAN 8-mers

Queued: "ACGCCAAT" 0.0184 % of ANNNNAAN 8-mers

Queued: "ATGGTAAA" 0.191 % of ANNNNAAN 8-mers

Queued: "ATAACAAC" 0.0391 % of ANNNNAAN 8-mers

Queued: "AAGTCAAA" 0.113 % of ANNNNAAN 8-mers

Queued: "AGCCTAAT" 0.0811 % of ANNNNAAN 8-mers

Queued: "AAGCAAAC" 0.0386 % of ANNNNAAN 8-mers

Queued: "AGCTAAAC" 0.0236 % of ANNNNAAN 8-mers

Queued: "ATTGAAAG" 0.0604 % of ANNNNAAN 8-mers

Queued: "ACTGGAAT" 0.0765 % of ANNNNAAN 8-mers

Queued: "ATAAAAAG" 0.114 % of ANNNNAAN 8-mers

Queued: "ACTATAAC" 0.0196 % of ANNNNAAN 8-mers

Queued: "AGAATAAG" 0.101 % of ANNNNAAN 8-mers

Queued: "AAGTAAAT" 0.146 % of ANNNNAAN 8-mers

Queued: "AGCCTAAC" 0.0144 % of ANNNNAAN 8-mers

Queued: "ATGTGAAA" 0.0748 % of ANNNNAAN 8-mers

* * *

Catalogue of binding signal readings, one per entry.
# assayed.target: POU2 (OCT2 POU domain);BOB1 (OBF1, OCA-B) (human;human, UniProt P09086;Q16633 175-386;1-256, |)
# Sequence 1: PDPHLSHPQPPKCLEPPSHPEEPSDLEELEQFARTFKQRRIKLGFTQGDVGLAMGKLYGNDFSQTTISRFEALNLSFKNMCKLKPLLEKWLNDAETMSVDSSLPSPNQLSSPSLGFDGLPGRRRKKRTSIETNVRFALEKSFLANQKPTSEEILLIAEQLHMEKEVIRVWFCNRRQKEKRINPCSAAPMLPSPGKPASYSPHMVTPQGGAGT
# Sequence 2: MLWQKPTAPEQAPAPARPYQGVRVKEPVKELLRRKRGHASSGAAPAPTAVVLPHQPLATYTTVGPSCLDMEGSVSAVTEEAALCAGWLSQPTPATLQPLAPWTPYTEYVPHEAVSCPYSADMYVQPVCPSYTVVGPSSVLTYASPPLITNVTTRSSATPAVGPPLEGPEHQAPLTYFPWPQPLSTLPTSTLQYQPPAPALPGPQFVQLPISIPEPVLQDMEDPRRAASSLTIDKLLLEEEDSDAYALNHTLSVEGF
# measurement.protocol: EMSA-SELEX-seq; with BOB1 (ternary complex band); 20 mM Tris-HCl pH 7.6, 140 mM NaCl, 10% glycerol, 0.5 mM EDTA, 0.05% Triton X-100, 0.1 mg/mL BSA, 0.1 mg/mL poly(dI-dC), 5 mM DTT, room temperature, 20 min; high values mean tight binding
# applied.conditions: protein: recombinant;recombinant; copies: 1;1; dsDNA, one strand shown

# annotated cases, reported binding signal shown
[
  {
    "seq": "ATAAAAAC",
    "binding signal": "0.0495 % of ANNNNAAN 8-mers"
  },
  {
    "seq": "AAGCCAAA",
    "binding signal": "0.0256 % of ANNNNAAN 8-mers"
  },
  {
    "seq": "AGCTAAAA",
    "binding signal": "0.0338 % of ANNNNAAN 8-mers"
  },
  {
    "seq": "ATGCCAAC",
    "binding signal": "0.0124 % of ANNNNAAN 8-mers"
  }
]

Given "ACTACAAT" , state its recorded binding signal. 0.0338 % of ANNNNAAN 8-mers

Queued: "AAGCGAAG" 0.0231 % of ANNNNAAN 8-mers

Queued: "AATAGAAA" 0.071 % of ANNNNAAN 8-mers

Queued: "ATGGCAAC" 0.0264 % of ANNNNAAN 8-mers

Queued: "ATCATAAG" 0.0421 % of ANNNNAAN 8-mers

Queued: "AGAGGAAT" 0.0859 % of ANNNNAAN 8-mers

Queued: "ATTGTAAG" 0.0594 % of ANNNNAAN 8-mers

Queued: "AGCCAAAT" 0.0892 % of ANNNNAAN 8-mers

* * *

Catalogue of binding signal readings, one per entry.
# assayed.target: POU2 (OCT2 POU domain);BOB1 (OBF1, OCA-B) (human;human, UniProt P09086;Q16633 175-386;1-256, |)
# Sequence 1: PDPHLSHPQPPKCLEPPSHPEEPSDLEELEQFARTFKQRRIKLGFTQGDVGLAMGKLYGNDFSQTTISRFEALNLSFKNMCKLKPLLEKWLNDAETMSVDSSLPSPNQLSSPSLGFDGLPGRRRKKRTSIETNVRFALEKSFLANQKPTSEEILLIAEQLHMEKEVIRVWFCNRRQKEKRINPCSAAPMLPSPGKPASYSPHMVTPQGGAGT
# Sequence 2: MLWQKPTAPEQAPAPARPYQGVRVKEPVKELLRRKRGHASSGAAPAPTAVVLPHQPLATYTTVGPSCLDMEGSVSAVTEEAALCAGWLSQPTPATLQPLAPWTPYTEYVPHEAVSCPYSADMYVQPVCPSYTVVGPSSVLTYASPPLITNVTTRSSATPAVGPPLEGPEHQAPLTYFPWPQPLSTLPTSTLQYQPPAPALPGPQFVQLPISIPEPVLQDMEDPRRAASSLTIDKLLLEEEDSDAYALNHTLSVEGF
# measurement.protocol: EMSA-SELEX-seq; with BOB1 (ternary complex band); 20 mM Tris-HCl pH 7.6, 140 mM NaCl, 10% glycerol, 0.5 mM EDTA, 0.05% Triton X-100, 0.1 mg/mL BSA, 0.1 mg/mL poly(dI-dC), 5 mM DTT, room temperature, 20 min; high values mean tight binding
# applied.conditions: protein: recombinant;recombinant; copies: 1;1; dsDNA, one strand shown

# annotated cases, reported binding signal shown
[
  {
    "seq": "AGGTGAAA",
    "binding signal": "0.0471 % of ANNNNAAN 8-mers"
  },
  {
    "seq": "ATTTAAAT",
    "binding signal": "0.832 % of ANNNNAAN 8-mers"
  },
  {
    "seq": "ACTTCAAA",
    "binding signal": "0.0256 % of ANNNNAAN 8-mers"
  }
]

Given "AGACGAAA" , state its recorded binding signal. 0.0264 % of ANNNNAAN 8-mers

Queued: "AAACCAAT" 0.0347 % of ANNNNAAN 8-mers

* * *

# assayed.target: POU1 (OCT1 POU domain) (human, UniProt P14859 260-458)
# Sequence (P14859 260-458): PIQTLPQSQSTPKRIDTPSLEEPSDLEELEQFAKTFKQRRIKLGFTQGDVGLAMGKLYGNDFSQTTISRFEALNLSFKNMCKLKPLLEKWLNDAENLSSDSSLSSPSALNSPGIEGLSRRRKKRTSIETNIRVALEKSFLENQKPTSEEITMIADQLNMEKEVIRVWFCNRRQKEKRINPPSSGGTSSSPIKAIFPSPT
# measurement.protocol: EMSA-SELEX-seq; no BOB1; 20 mM Tris-HCl pH 7.6, 140 mM NaCl, 10% glycerol, 0.5 mM EDTA, 0.05% Triton X-100, 0.1 mg/mL BSA, 0.1 mg/mL poly(dI-dC), 5 mM DTT, room temperature, 20 min; high values mean tight binding
# applied.conditions: protein: recombinant; dsDNA, one strand shown
Catalogue of binding signal readings, one per entry.

# annotated cases, reported binding signal shown
[
  {
    "seq": "AGCGAAAC",
    "readout.label": "binding signal",
    "observed.measurement": "0.0183 % of ANNNNAAN 8-mers"
  },
  {
    "seq": "ATCTAAAG",
    "readout.label": "binding signal",
    "observed.measurement": "0.0412 % of ANNNNAAN 8-mers"
  },
  {
    "seq": "ATGAAAAG",
    "readout.label": "binding signal",
    "observed.measurement": "0.135 % of ANNNNAAN 8-mers"
  }
]

Given "ATCCTAAA" , state its recorded binding signal. 0.0267 % of ANNNNAAN 8-mers

Queued: "AACTGAAC" 0.0179 % of ANNNNAAN 8-mers

Queued: "AAGTAAAG" 0.0545 % of ANNNNAAN 8-mers

Queued: "ATAATAAG" 0.182 % of ANNNNAAN 8-mers

Queued: "AGAAGAAA" 0.0507 % of ANNNNAAN 8-mers

Queued: "ACCAGAAA" 0.029 % of ANNNNAAN 8-mers

Queued: "ATGCAAAA" 1.5 % of ANNNNAAN 8-mers

Queued: "AAGAAAAC" 0.0473 % of ANNNNAAN 8-mers
